Biological target: bovine brain purified PI 3-kinase
Assay: Assay of purified PI 3-kinase activity
Settings: purified bovine brain PI 3-kinase, phosphatidylinositol substrate, 20 μM ATP; molar value in brackets; read-out: one-half maximal inhibition, IC50
endpoint-label: IC50 (nM)
Numbers only here, please. The scale is nM.

IC50 reading for COC1C(=O)c2coc3c2[C@@](C)(c2ccc4c(c2C3=O)CCC4=O)[C@@H]1O (stereo partly shown) : 2.4
